Test system: ATF4 translation
Assay: ATF4 cell based assay (ATF4 reporter assay, NanoLuc luciferase fused to 5'-UTR of ATF4)
Conditions: SH-SY5Y-ATF4-NanoLuc cells challenged with Thapsigargin for 14-18 hours; average of a set of two or more experimental runs; read-out: average ATF4 pathway inhibitory activity (IC50)
Property label: IC50 (nM)

INSERT INTO results (compound, target_of_assay, reported_value) VALUES
  ('O=C(COc1ccc(Cl)cc1)NC1CCN(C(=O)CCCc2ccc(Cl)cc2)CC1', 'ATF4 translation', 98.7),
  ('CN(C(=O)COc1ccc(Cl)cc1)C1CCN(CCCOc2ccc(Cl)cc2)CC1', 'ATF4 translation', 61.2),
  ('O=C(COc1ccc(Cl)cc1)NC1CCN(CCOc2ccc(Cl)cc2)CC1F (stereo not shown)', 'ATF4 translation', 93.9),
  ('O=C(COc1ccc(Cl)nc1)NC1CCN(CCCOc2ccc(Cl)cc2)CC1', 'ATF4 translation', 58.4);

[1] O=C(COc1ccc(Cl)cc1)NC1CCN(C(=O)COc2ccc(Cl)cc2)CC1F (stereo not shown)
[2] O=C(COc1ccc(Cl)cc1)NC1CCN(CCCOc2ccc(Cl)nc2)CC1
[Q] Please choose the item with the lower IC50 value from this pair: 1 and 2 Reply briefly: the label of your chosen item.
[A] 2

* * *

Some compounds, each annotated with its measured IC50.
System: ATF4 translation
Test: ATF4 cell based assay (ATF4 reporter assay, NanoLuc luciferase fused to 5'-UTR of ATF4)
Conditions: SH-SY5Y-ATF4-NanoLuc cells challenged with Thapsigargin for 14-18 hours; average of a set of two or more experimental runs; read-out: average ATF4 pathway inhibitory activity (IC50)

INSERT INTO results (compound, property_label, reported_value) VALUES
  ('O=C(COc1ccc(Cl)cc1)NC1CCN(CCCOc2ccc(Cl)cc2)CC1', 'IC50', '< 4000 nM'),
  ('O=C(COc1ccc(Cl)cc1)NCCC1CCCN(C(=O)COc2ccc(Cl)cc2)C1 (stereo not shown)', 'IC50', '< 1000 nM'),
  ('O=C(COc1ccc(Cl)cc1)NCC1CCN(CCCOc2ccc(Cl)cc2)CC1', 'IC50', '> 1000 nM');

[Q] Request: IC50, test system ATF4 translation, entry O=C(COc1ccc(Cl)cc1)NC1CCCN(C(=O)COc2ccc(Cl)cc2)C1 (stereo not shown)
[A] > 1000 nM

[Q] Next entry: O=C(COc1ccc(Cl)nc1)NCC1CCCN(C(=O)COc2ccc(Cl)cc2)C1 (stereo not shown)
[A] > 1000 nM

[Q] What would you report for "O=C(NCCOc1ccc(Cl)cc1)C1CCN(CCCOc2ccc(Cl)cc2)CC1" ?
[A] > 1000 nM

[Q] Moving on to "O=C(COc1ccc(C2CC2)cc1)NC1CCN(CCCOc2ccc(Cl)cc2)CC1"
[A] > 1000 nM
